Origin of values: patent US20230190927A1

Here, each record is paired with measured IC50 data.
Molecular target: purified recombinant mouse ENPP1 (Mus musculus)
Sequence (P06802 whole entry): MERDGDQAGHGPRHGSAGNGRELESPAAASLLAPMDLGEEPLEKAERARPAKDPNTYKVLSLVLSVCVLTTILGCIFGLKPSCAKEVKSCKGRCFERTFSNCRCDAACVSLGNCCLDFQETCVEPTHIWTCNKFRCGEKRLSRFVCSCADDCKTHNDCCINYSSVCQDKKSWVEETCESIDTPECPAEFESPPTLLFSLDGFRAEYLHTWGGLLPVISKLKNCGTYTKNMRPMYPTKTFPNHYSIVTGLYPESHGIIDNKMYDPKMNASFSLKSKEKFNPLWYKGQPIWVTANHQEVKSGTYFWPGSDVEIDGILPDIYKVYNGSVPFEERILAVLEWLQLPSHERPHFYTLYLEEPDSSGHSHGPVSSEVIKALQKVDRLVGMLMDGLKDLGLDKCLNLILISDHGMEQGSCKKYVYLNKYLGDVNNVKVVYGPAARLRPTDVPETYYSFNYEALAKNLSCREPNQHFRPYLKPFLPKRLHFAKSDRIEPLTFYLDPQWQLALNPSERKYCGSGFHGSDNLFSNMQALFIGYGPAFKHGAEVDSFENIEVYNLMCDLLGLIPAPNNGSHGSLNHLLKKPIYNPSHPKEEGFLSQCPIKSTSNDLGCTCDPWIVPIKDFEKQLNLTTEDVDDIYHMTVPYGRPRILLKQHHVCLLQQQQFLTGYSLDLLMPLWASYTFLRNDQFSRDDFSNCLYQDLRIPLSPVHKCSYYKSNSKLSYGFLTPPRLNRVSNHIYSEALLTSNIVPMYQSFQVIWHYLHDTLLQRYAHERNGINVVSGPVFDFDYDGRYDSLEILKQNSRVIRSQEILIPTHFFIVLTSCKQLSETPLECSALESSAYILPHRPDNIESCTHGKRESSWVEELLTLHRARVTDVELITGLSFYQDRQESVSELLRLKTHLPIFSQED
Assay: ENPP1 enzyme activity assay using 32P cGAMP as a substrate (TLC)
Assay type: biochemical
Details: 32P-cGAMP 5 μM, mouse ENPP1 20 nM, pH 7.5, room temperature, 5 hours; read-out: IC50 values (cGAMP; μM)

# MOLECULE, IC50
measured = [
    ("COc1ccc2c(N3CCC(CCP(=O)(O)O)CC3)nc(/C=C/c3cccnc3)nc2c1 [Compound 18]", "0.05 to 0.5 µM"),
    ("COc1ccc2c(N3CCC(CCP(=O)(O)O)CC3)ncnc2c1 [Compound 10]", "0.05 to 0.5 µM"),
    ("COc1ccc2c(N3CCC(CCP(=O)(O)O)CC3)nc(C)nc2c1 [Compound 12]", "0.05 to 0.5 µM"),
]

Ask: Which IC50 is listed for COc1cc2ncnc(N3CCN(C(=O)CP(=O)(O)O)CC3)c2cc1OC [Compound 75] ?
Result: 0.5 to 5 µM

---

Biological target: purified recombinant mouse ENPP1 (Mus musculus)
Assay: ENPP1 enzyme activity assay using 32P cGAMP as a substrate (TLC)
Assay type: biochemical
RECORDED METRIC: IC50

Ask: Which IC50 is listed for `COc1cccc2c(N3CCC(CCP(=O)(O)O)CC3)ncnc12` ?
Result: 5 to 50 nM

---

Target: purified recombinant mouse ENPP1 (Mus musculus)
Assay: ENPP1 activity assay using TMP-pNP as a substrate
Assay type: biochemical
Conditions: TMP-pNP 2 μM, mouse ENPP1 0.5 nM, pH 7.5, room temperature
RECORDED METRIC: IC50

# MOLECULE, EXPERIMENTAL SYSTEM, RECORDED METRIC, OBSERVED RESULT
records = [
    ("COc1cccc2c(N3CCC(COP(=O)(O)O)CC3)ncnc12", "purified recombinant mouse ENPP1 (Mus musculus)", "IC50", "< 0.005 µM"),
]

Ask: Which IC50 is listed for `COc1cc2ncnc(N3CCC(CP(=O)(O)O)CC3)c2cc1OC` ?
Result: 0.05 to 0.5 µM

Ask: Which IC50 is listed for `COc1cc2ccnc(N3CCC(CCP(=O)(O)O)CC3)c2cc1OC` ?
Result: 0.05 to 0.5 µM

Ask: Which IC50 is listed for `CC(C)Oc1ccc2c(N3CCC(CCP(=O)(O)O)CC3)ncnc2c1` ?
Result: > 5 µM

Ask: Which IC50 is listed for `COc1cc2ncnc([C@H]3CC[C@H](CCP(=O)(O)O)CC3)c2cc1OC` ?
Result: 0.005 to 0.05 µM

---

Biological target: purified recombinant mouse ENPP1 (Mus musculus)
Assay: ENPP1 activity assay using TMP-pNP as a substrate
Assay type: biochemical
Conditions: TMP-pNP 2 μM, mouse ENPP1 0.5 nM, pH 7.5, room temperature
RECORDED METRIC: IC50

Recorded results for 6 molecules are shown here.
# MOLECULE, IC50
measured = [
    ("COc1cccc2c(N3CCC(CCP(=O)(O)O)CC3)ncnc12", "< 0.005 µM"),
    ("COc1ccc2c(N3CCN(CCP(=O)(O)O)CC3)ncnc2c1", "> 5 µM"),
    ("COc1cc2ncnc([C@H]3CC[C@@H](CCP(=O)(O)O)CC3)c2cc1OC", "0.005 to 0.05 µM"),
    ("O=P(O)(O)CCC1CCN(c2ncnc3nc[nH]c23)CC1", "> 5 µM"),
    ("COc1cc2ncnc(N3CCC(CCB(O)O)CC3)c2cc1OC", "0.05 to 0.5 µM"),
    ("COc1cc2ncnc(N3CCC(CC(=O)NO)CC3)c2cc1OC", "0.5 to 5 µM"),
]

Ask: Which IC50 is listed for COc1ccc2c(N3CCC(CCP(=O)(O)O)CC3)ncnc2c1OC [Compound 22] ?
Result: 0.05 to 0.5 µM

Ask: Which IC50 is listed for `COc1cc2ncnc(N3CCC(COP(=O)(O)O)CC3)c2cc1OC` ?
Result: 0.05 to 0.5 µM

Ask: Which IC50 is listed for `COc1ccc2c(N3CCC(CCP(=O)(O)O)CC3)ncnc2c1` ?
Result: < 0.005 µM
